- measurement.parameters: human, serum
# Hepatotoxicity (acute) per record follows

{"compound": "CO[C@@]1(NC(=O)Cc2cccs2)C(=O)N2C(C(=O)O)=C(COC(N)=O)CS[C@@H]21", "Hepatotoxicity (acute)": 1}
{"compound": "O=CN(O)CCCP(=O)(O)O", "Hepatotoxicity (acute)": 0}
{"compound": "CC1=C(C/C=C(\\C)CCC[C@H](C)CCC[C@H](C)CCCC(C)C)C(=O)c2ccccc2C1=O", "Hepatotoxicity (acute)": 5}
{"compound": "O=C(Cn1c(=O)sc2ccc(Cl)cc21)N1CCN(CCO)CC1 [TIARAMIDE]", "Hepatotoxicity (acute)": 1}
{"compound": "CC(C)=CCC/C(C)=C/CC/C(C)=C/CCC(=O)OC/C=C(\\C)CCC=C(C)C [GEFARNATE]", "Hepatotoxicity (acute)": 0}
{"compound": "CCN(CC)Cc1cc(Nc2ccnc3cc(Cl)ccc23)ccc1O.Cl", "Hepatotoxicity (acute)": 18}
{"compound": "NS(=O)(=O)c1cc2c(cc1Cl)NCNS2(=O)=O [HYDROCHLOROTHIAZIDE]", "Hepatotoxicity (acute)": 4}
{"compound": "CC(=O)CCCCn1c(=O)c2c(ncn2C)n(C)c1=O", "Hepatotoxicity (acute)": 2}
{"compound": "Cn1nnc2c(C(N)=O)ncn2c1=O [TEMOZOLOMIDE]", "Hepatotoxicity (acute)": 1}

---

- measurement.parameters: human
measure.name: Hepatotoxicity (cirrhosis)

{"molecule": "CCCC(=O)O[C@H]1[C@H](C)O[C@@H](O[C@H]2[C@H](N(C)C)[C@@H](O)[C@H](O[C@H]3[C@@H](CC=O)C[C@@H](C)[C@@H](O)/C=C/C=C/C[C@@H](C)OC(=O)C[C@@H](O)[C@@H]3OC)O[C@@H]2C)C[C@@]1(C)OC(=O)CC", "val": 0}
{"molecule": "NS(=O)(=O)c1cc2c(cc1Cl)N=CNS2(=O)=O [CHLOROTHIAZIDE]", "val": 1}
{"molecule": "CCOC(=O)CN[C@@H](C(=O)N1CC[C@H]1C(=O)NCc1ccc(/C(N)=N\\O)cc1)C1CCCCC1", "val": 0}
{"molecule": "CC(Cc1ccccc1)NCc1ccccc1Cl (stereo not drawn)", "val": 0}
{"molecule": "O=C(N[C@H](CO)[C@H](O)c1ccc([N+](=O)[O-])cc1)C(Cl)Cl", "val": 0}
{"molecule": "CC(=O)Oc1cccc2c1C(=O)c1c(OC(C)=O)cc(C(=O)O)cc1C2=O", "val": 0}
{"molecule": "O=C(O)C1N=C(c2ccccc2)c2cc(Cl)ccc2NC1=O (stereo not drawn) [CLORAZEPIC ACID]", "val": 0}
{"molecule": "OCc1cc(C(O)CNCCCCCCOCCCCc2ccccc2)ccc1O (stereo not drawn)", "val": 0}
{"molecule": "Clc1ccc(C(c2ccccc2Cl)C(Cl)Cl)cc1 (stereo not drawn)", "val": 0}
{"molecule": "COc1cccc2c1C(=O)c1c(O)c3c(c(O)c1C2=O)C[C@@](O)(C(=O)CO)C[C@@H]3O[C@H]1C[C@H](N)[C@@H](O)[C@H](C)O1 [EPIRUBICIN]", "val": 0}
{"molecule": "CC[C@]1(O)C[C@@H]2CN(CCc3c([nH]c4ccccc34)[C@@](C(=O)OC)(c3cc4c(cc3OC)N(C)[C@H]3[C@@](O)(C(=O)OC)[C@H](OC(C)=O)[C@]5(CC)C=CCN6CC[C@]43[C@@H]65)C2)C1", "val": 0}
{"molecule": "CC(C)[N+](C)(CCC(C(N)=O)(c1ccccc1)c1ccccc1)C(C)C [ISOPROPAMIDE]", "val": 0}
{"molecule": "CO/N=C(\\C(=O)N[C@@H]1C(=O)N2C(C(=O)O)=C(COC(N)=O)CS[C@H]12)c1ccco1", "val": 0}
{"molecule": "NC(CO)(CO)CO", "val": 0}
{"molecule": "O=C1CN2Cc3c(ccc(Cl)c3Cl)N=C2N1 [ANAGRELIDE]", "val": 0}
{"molecule": "CN(C)CC/C=C1/c2ccccc2Sc2ccc(Cl)cc21", "val": 0}
{"molecule": "Cc1nnc2n1-c1ccc(Cl)cc1C(c1ccccc1Cl)=NC2", "val": 0}
{"molecule": "C[C@]12CCC(=O)C=C1CC[C@@H]1[C@@H]2CC[C@@]2(C)[C@H]1CC[C@]2(C)O", "val": 2}
{"molecule": "CN1CCN(CCCN2c3ccccc3Sc3ccc(C(F)(F)F)cc32)CC1", "val": 1}
{"molecule": "NS(=O)(=O)c1cc(C(=O)O)cc(N2CCCC2)c1Oc1ccccc1 [PIRETANIDE]", "val": 0}
{"molecule": "O=C(O)c1ccccc1Nc1cccc(C(F)(F)F)c1", "val": 0}
{"molecule": "CCc1cc(C(N)=S)ccn1 [ETHIONAMIDE]", "val": 0}
{"molecule": "O=c1[nH]cnc2c1ncn2[C@H]1CC[C@@H](CO)O1", "val": 1}
{"molecule": "CCN(CC)CC(=O)Oc1ccc(NC(C)=O)cc1", "val": 0}
{"molecule": "NC(=O)CCC/N=C(\\c1ccc(Cl)cc1)c1cc(F)ccc1O [PROGABIDE]", "val": 0}
{"molecule": "Cc1ncc([N+](=O)[O-])n1CC(O)CCl (stereo not drawn)", "val": 0}
{"molecule": "O=C(c1ccccc1)c1ccc2n1CCC2C(=O)O (stereo not drawn)", "val": 0}
{"molecule": "CC(C)c1c(C(=O)Nc2ccccc2)c(-c2ccccc2)c(-c2ccc(F)cc2)n1CC[C@@H](O)C[C@@H](O)CC(=O)O", "val": 1}
{"molecule": "CO[C@H]1/C=C/O[C@@]2(C)Oc3c(C)c(O)c4c(O)c(c(/C=N/N5CCN(C)CC5)c(O)c4c3C2=O)NC(=O)/C(C)=C\\C=C\\[C@H](C)[C@H](O)[C@@H](C)[C@@H](O)[C@@H](C)[C@H](OC(C)=O)[C@@H]1C", "val": 0}
{"molecule": "CN(C)CCCN1c2ccccc2Sc2ccccc21", "val": 0}
{"molecule": "Cc1noc(NS(=O)(=O)c2ccc(N)cc2)c1C", "val": 0}
{"molecule": "NCCCC[C@H](N[C@@H](CCc1ccccc1)C(=O)O)C(=O)N1CCC[C@H]1C(=O)O [LISINOPRIL ANHYDROUS]", "val": 0}
{"molecule": "CCOc1ccccc1OCC1CNCCO1 (stereo not drawn)", "val": 0}

Entry source: ChEMBL document CHEMBL3137667
